Tested on: NCI-H522 lung
Assay: NCI tumour cell line growth inhibition, 48 h
endpoint: GI50

INSERT INTO assay_data (molecule, result_value) VALUES
  ('O=C1Nc2ccc(CN3CCOC3=O)cc2/C1=C/c1cc(CN2CCOCC2)c[nH]1', '36.1 µM'),
  ('CCCC(=O)O[C@]1(C)CC[C@@H]2[C@H]3[C@@H]1[C@@H]1C/C(C)=C\CC[C@](C)(OC(=O)[C@@H]2C)[C@H]3O1', '19.6 µM'),
  ('C[C@@H]1CC[C@@H]2[C@@H]1[C@H](OC(=O)c1ccc3ccccc3c1)[C@]1(C3CCCCC3)C[C@@H](OC(=O)CO)[C@@]2(C)O1', '10.3 µM'),
  ('COc1cc2c(c(OC)c1OC)C(=O)c1c-2n(CCCN=[N+]=[N-])c(=O)c2cc([N+](=O)[O-])ccc12', '16.9 µM'),
  ('CC(C)c1ccc(/C=N/N=C(N)N)cc1', '3.22 µM'),
  ('CCOc1ccc(NC(=O)c2cc3ccccc3cc2O)cc1', '59.1 µM'),
  ('O=C([CH-]C(=O)c1ccccc1)c1ccccc1.[CH3-].[CH3-].[CH3-].[Sn+4]', '11.8 µM'),
  ('CCOc1ccc2c(c1)C(=O)c1c-2n(CCCN)c(=O)c2cc([N+](=O)[O-])ccc12', '0.0134 µM'),
  ('c1ccc2c(-c3cnn4cc(-c5ccc(N6CCNCC6)cc5)cnc34)ccnc2c1', '1.5 µM'),
  ('CCOC(=O)Nc1ccc(C(=O)/C=C/c2ccccc2)cc1', '20.9 µM'),
  ('CC(=O)N1N=C(c2ccc(Nc3nc(Nc4ccc(F)cc4)nc(Nc4ccc(Cl)cc4)n3)cc2)CC1c1ccc(N(C)C)cc1 (centres undefined)', '3.79 µM'),
  ('NC(=S)N/N=C/c1ccc(OC(=O)COc2ccccc2)cn1', '8.6 µM'),
  ('CC1=C/C(O)CC(=O)Cc2nc(co2)C(=O)N2CCC=C2C(=O)OC(C(C)C)C(C)/C=C\C(=O)NC/C=C\1 (centres undefined)', '15.2 µM'),
  ('C=C1C(=O)O[C@H]2[C@H]1CC/C(COC(=O)C(=O)c1c[nH]c3ccc(Cl)cc13)=C\CC[C@@]1(C)O[C@@H]21', '1.53 µM'),
  ('Cc1ccc(NC(=O)N2CCCCC2)cc1[N+](=O)[O-]', '87.1 µM'),
  ('COc1ccccc1Nc1nc2ccccc2c2occc12', '12 µM'),
  ('CNC1=CC(=O)C2=C(C1=O)C1C3=C(C(=O)C(Br)=C(OC)C3=O)C2c2ccccc21 (centres undefined)', '1.3 µM'),
  ('O=C(O)c1cc2cc(O)ccc2[nH]1', '> 100 µM'),
  ('CC(=O)OC1CC2(O)C(CCC3(C)C(c4ccc(=O)oc4)CCC32O)C2(C)CCC(OC3OC(CO)C(O)C(O)C3O)C=C12 (centres undefined)', '< 0.01 µM');

Reference for the values: PubChem BioAssay (NCI)
